tested on: NCI-H460; experiment: relative viability (nuclei count vs DMSO), 5 days (fraction); higher = more cells survive; settings: first compound 0.03162 µM
quantityMeasured: relative viability
Response field accepts a number only; no unit should be typed.

>>> experimentalresult("CCN(CC)CCCCNc1ncc2cc(-c3cc(OC)cc(OC)c3)c(NC(=O)NC(C)(C)C)nc2n1 + N=C(N)NC(=N)NCCc1ccccc1 [Phenformin] (partner 250 µM)")
0.567
>>> experimentalresult("O=c1cc(N2CCOCC2)oc2c(-c3cccc4c3sc3ccccc34)cccc12 + Nc1nc2[nH]cc(CCc3ccc(C(=O)N[C@@H](CCC(=O)O)C(=O)O)cc3)c2c(=O)[nH]1 [Pemetrexed] (partner 0.2 µM)")
0.0598

Next compound, relative viability to be filled in.
Provide measured relative viability value, entry: CCN(CC)CCCCNc1ncc2cc(-c3cc(OC)cc(OC)c3)c(NC(=O)NC(C)(C)C)nc2n1 + Cc1cc(Nc2cc(N3CCN(C)CC3)nc(Sc3ccc(NC(=O)C4CC4)cc3)n2)n[nH]1 [Tozasertib] (partner 0.1 µM)
0.66
